# assay method text: Pharmacokinetic properties in Beagle dogs, single oral dose compared with intravenous administration
# recorded conditions: dog, in vivo, 2 mg/kg, i.v. 2 mg/kg in DMSO/tetraglycol/PEG400/water 10:20:25:45, Normal dogs (about 11 kg), fasted
measured endpoint: C0 (ng/mL)
Answers are plain numbers, in ng/mL.

Recorded C0 of `C/C(N)=N/C(=N\S(=O)(=O)c1ccc(C(F)(F)F)cc1)N1C[C@H](c2ccccc2)C(c2ccc(Cl)cc2)=N1` , please.
2220

---

# assay method text: Pharmacokinetic properties in Beagle dogs, single oral dose compared with intravenous administration
# recorded conditions: dog, in vivo, 2 mg/kg, i.v. 2 mg/kg, Normal dogs (about 11 kg), fasted, read-out: T½ (converted)
measured endpoint: half-life (h)
Give bare numbers, in h.

half-life lookup needed for `C/C(N)=N/C(=N\S(=O)(=O)c1ccc(C(F)(F)F)cc1)N1C[C@H](c2ccccc2)C(c2ccc(Cl)cc2)=N1` , thanks.
5.88

The origin of these recorded values is patent US20230174493A1.
